Data origin: the supplement of paper PMC13094657

# Tested on: MDA-MB-231
# experiment notes: kynurenine production, fold change vs DMSO IFNg/TNF control; higher = more kynurenine produced (less inhibition)
# run parameters: pre-treatment time: 18 h then 24 h IFNg/TNF
kynurenine production reference
No unit in the answer, only the number.

[[record]]
compound = "C/C1=C\\CC[C@]23O[C@H]2[C@@H](OC3=O)c2c(C)coc2C1 [Linderane] (compound dose: 10 uM)"
target_or_system = "MDA-MB-231"
readout_type = "kynurenine production"
recorded_value = 0.942


Task item: Report kynurenine production for CC(=O)OCC1=C[C@H]2[C@@H]3C(C)(C)[C@]3(OC(C)=O)[C@H](OC(C)=O)[C@@H](C)[C@]2(O)[C@@H]2C=C(C)C(=O)[C@@]2(O)C1 [Phorbol 12,13,20-triacetate] (compound dose: 10 uM)
Reply: 0.8

Task item: Give kynurenine production for C=C1C(=O)O[C@H]2C[C@@H](C)[C@@H]3CCC(=O)[C@@]3(C)[C@@H](OC(C)=O)[C@H]12 [Ergolide] (compound dose: 10 uM)
Reply: 0.246

Task item: Using known records, supply kynurenine production for O=c1c(O)c(-c2ccc(O)cc2)oc2cc(O)cc(O)c12 [Kaempferol] (compound dose: 10 uM)
Reply: 0.672
